Numbers sourced from patent US20260325540A1.

Biological target: HCoV-229E 3CL protease (Human coronavirus 229E)
Sequence (P0C6U2 2966-3267): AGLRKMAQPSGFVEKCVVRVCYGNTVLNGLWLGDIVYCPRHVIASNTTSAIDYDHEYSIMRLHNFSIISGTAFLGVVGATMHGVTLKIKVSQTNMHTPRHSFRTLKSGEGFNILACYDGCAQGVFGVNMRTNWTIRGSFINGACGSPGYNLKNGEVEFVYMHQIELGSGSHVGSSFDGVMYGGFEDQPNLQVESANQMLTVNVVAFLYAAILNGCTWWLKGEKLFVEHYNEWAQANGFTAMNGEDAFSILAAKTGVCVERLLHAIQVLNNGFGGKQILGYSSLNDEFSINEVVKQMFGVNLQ
Assay: FRET based protease assay, HCoV-229E 3CL
Settings: 229E IC50, 6 nM H229E-CoV Chis-3CLpro, 6 μM peptide 1 substrate, 25° C., 1.5 hrs, pH 7.5
pIC50: −log10 of the molar value.
Entries and their pIC50 values follow.
measured_attribute: pIC50

molecule=CC1(C)[C@@H]2[C@H]3C(=O)N[C@H](C#N)C[C@@H]4C(=O)NC[C@@H]4CCCC[C@H](NS(=O)(=O)c4ccc(F)cc4F)C(=O)N3C[C@@H]21 measured_attribute=pIC50 recorded_measurement="> 7.00"
molecule=CN1C[C@@H]2CCCC[C@H](NC(=O)OC(C)(C)C)C(=O)N3C[C@H]4[C@@H]([C@H]3C(=O)N[C@H](C#N)C[C@@H]2C1=O)C4(C)C measured_attribute=pIC50 recorded_measurement="4.70 to 6.00"
molecule=CO[C@@H]1C[C@H]2C(=O)N[C@H](C#N)C[C@@H]3C(=O)NC[C@@H]3CCCC[C@H](NC(=O)OC(C)(C)C)C(=O)N2C1 measured_attribute=pIC50 recorded_measurement="6.00 to 7.00"
molecule=CC(C)(C)OC(=O)N[C@H]1CCCC[C@H]2CNC(=O)[C@H]2C[C@@H](C#N)NC(=O)[C@H]2N(CC(F)(F)C2(C)C)C1=O measured_attribute=pIC50 recorded_measurement="6.00 to 7.00"
molecule=CC(C)(C)OC(=O)N[C@H]1CC/C=C\[C@H]2CCNC(=O)[C@H]2C[C@@H](C#N)NC(=O)[C@@H]2[C@@H]3[C@H](CN2C1=O)C3(C)C measured_attribute=pIC50 recorded_measurement="> 7.00"
molecule=CC1(C)[C@@H]2[C@H]3C(=O)N[C@H](C#N)C[C@@H]4C(=O)NC[C@@H]4CCCC[C@H](NC(=O)C45CC(C(F)(F)F)(C4)C5)C(=O)N3C[C@@H]21 measured_attribute=pIC50 recorded_measurement="> 7.00"
molecule=CC(C)C[C@@H]1NC(=O)[C@@H](Cc2ccccc2)CCCCC[C@H]2CNC(=O)[C@H]2C[C@@H](C#N)NC1=O measured_attribute=pIC50 recorded_measurement="4.70 to 6.00"
molecule="CC1(C)[C@@H]2[C@H]3C(=O)N[C@H](C#N)C[C@@H]4C(=O)NC[C@@H]4CCCC[C@H](NC(=O)C4CC5(CCC5)C4)C(=O)N3C[C@@H]21 (stereo partly shown)" measured_attribute=pIC50 recorded_measurement="> 7.00"
molecule=CC(C)C[C@@H]1NC(=O)CCCCC[C@H]2CNC(=O)[C@H]2C[C@@H](C#N)NC1=O measured_attribute=pIC50 recorded_measurement="6.00 to 7.00"
molecule=N#C[C@@H]1C[C@@H]2C(=O)NC[C@@H]2CCCC[C@H](NS(=O)(=O)c2ccc(F)cc2F)C(=O)N2C[C@@H]3CCC[C@@H]3[C@H]2C(=O)N1 measured_attribute=pIC50 recorded_measurement="> 7.00"
molecule=CC1(C)[C@@H]2[C@H]3C(=O)N[C@H](C#N)C[C@@H]4C(=O)NC[C@@H]4CCCC[C@H](NC(=O)c4ccc(F)cc4)C(=O)N3C[C@@H]21 measured_attribute=pIC50 recorded_measurement="> 7.00"
molecule=CC(C)(C)OC(=O)N[C@H]1CC/C=C/[C@H]2CNC(=O)[C@H]2C[C@@H](C#N)NC(=O)[C@@H]2[C@H]3CCC[C@H]3CN2C1=O measured_attribute=pIC50 recorded_measurement="> 7.00"
molecule=CC(C)(C)C(=O)N[C@H]1CCCC[C@H]2CNC(=O)[C@H]2C[C@@H](C#N)NC(=O)[C@@H]2[C@H]3CCC[C@H]3CN2C1=O measured_attribute=pIC50 recorded_measurement="> 7.00"
